# Test system: human induced hepatic stem cells NGC1-1
# Protocol details: Quantitative RT-PCR, differentiation with TGF-β signaling inhibitors (Example 11)
# Type: cell-based
# Protocol conditions: cell samples Nos. 1141-1145: 0.5 μM inhibitor in ReproStem + 10 ng/mL aFGF, no feeder cells, Matrigel, 7 days after seeding; No. 1133 taken as 1
Metric: TTR expression ratio
Answer using only a numeral; do not append any unit.

Answered cases to consult:
NC(=O)c1ccc(-c2nc(-c3ccc4c(c3)OCO4)c(-c3ccccn3)[nH]2)cc1 :: 614.17
c1ccc(-c2n[nH]cc2-c2ccnc3ccccc23)nc1 :: 482.45

Now for a further compound.
-- ask Request the reported TTR expression ratio associated with Cc1cccc(-c2n[nH]cc2-c2ccc3ncccc3n2)n1 [compound 616451]
-- reply 966.14
